Attribution: PubChem BioAssay AID2314

The entries below come with measured max response values attached.
Experiment: Cycloheximide Counterscreen for Small Molecule Inhibitors of Shiga Toxin; further: read at 38.3 µM for the half of the compounds with a filed dose; 0% is about no effect
Details: cell reporter, cycloheximide protein synthesis inhibition counterscreen; active compounds read high
In all, about 300,000 compounds went through this assay and about 37,000 (12%) were called active. Shown is part of a subset that was picked to be rich in actives.

Look over these answered cases.
O=C(Nc1ccc(S(=O)(=O)Nc2nccs2)cc1)c1cccc(S(=O)(=O)N2CCOCC2)c1 ... -1.31% (inactive)
C=CCn1c(=S)[nH]c2scc(-c3ccco3)c2c1=O ... -1.66% (inactive)
CCC(=C/c1sc2ccc3ccccc3c2[n+]1C)/C=C1\Sc2ccc3ccccc3c2N1C ... -3.42% (inactive)
Cc1nc2ccc(NC(=O)N3CCC(c4ccccc4)C3)cc2nc1C (centres undefined) ... -1.48% (inactive)

Please report the recorded max response for COCc1cc(C(C)=O)ccc1OC . -7.85% (inactive)

Find the recorded max response belonging to CCc1nnc(NC(=O)c2nc3nccc(C)n3n2)s1 and report it. -2.71% (inactive)

---

Measured max response by item
Assay: Cycloheximide Counterscreen for Small Molecule Inhibitors of Shiga Toxin; further: read at 38.3 µM for the half of the compounds with a filed dose; 0% is about no effect
Conditions: cell reporter, cycloheximide protein synthesis inhibition counterscreen; active compounds read high
In all, about 300,000 compounds went through this assay and about 37,000 (12%) were called active. Only a selection was taken, and actives are over-represented in it overall.
I only need the number, in %, no unit after it.

O=C(CC1Nc2ccccc2NC1=O)Nc1ccccc1NC(=O)CC1Nc2ccccc2NC1=O (stereo not drawn) ... 34.5
CCCCNC(=O)N1CCCC(N(C)CCc2ccc(OC)c(OC)c2)C1 (stereo not drawn) ... -0.786
Cc1ccc(CNC(=O)CC2Sc3ccccc3NC2=O)cc1 (stereo not drawn) ... -1.23
CCOC(=O)c1cc(C(=O)Nc2ccc(S(=O)(=O)Nc3ccc(OC)cc3)cc2)nn1C ... 3.41
O=C(CCS(=O)(=O)c1ccccc1)NC1CCCC1 ... 49.1

Consider the compound COC(=O)C(C)C1Sc2ccccc2NC1=O (stereo not drawn) and give its measured max response. -1.04

Entry under review: CC1CCN(CCC(=O)Nc2ccccc2)CC1 . Reported max response? 1.18

Please report the recorded max response for CCc1ccc(NC(=O)CC2C(=O)NCCN2C(=S)Nc2ccccc2)cc1 (stereo not drawn) . 5.14

Sample COC(=O)c1cc(S(=O)(=O)Nc2ccc(C)c(F)c2)c[nH]1 — what was its max response? 1.38

Request the reported max response associated with CN1C(=O)/C(=C/c2ccc(C(=O)NC3CCCC3)cc2)Oc2ccccc21 7.07

Can you look up the measured max response of COc1ccc(OC)c(Cc2nnc(CCC(=O)NC3CCCC3)o2)c1 for me? 18.4

# query: max response of entry CC(=O)c1cc(-c2ccccc2)n(CCC(=O)NC2CCCCCC2)c1C -2.48

What value of max response has been reported for the following compound? O=C(CC1Nc2ccccc2NC1=O)Nc1ccccc1 (stereo not drawn) 31

Can you look up the measured max response of CCCCOc1ccc(-c2ncc(C(=O)OCC)c(N)n2)cc1 for me? 42.2

---

Test: Cycloheximide Counterscreen for Small Molecule Inhibitors of Shiga Toxin; further: read at 38.3 µM for the half of the compounds with a filed dose; 0% is about no effect
Settings: cell reporter, cycloheximide protein synthesis inhibition counterscreen
The campaign covered roughly 300,000 compounds. About 37,000 (12%) were called active. Cut-off read from the data, not from the text of the source: active = max response mostly above about 13% (no sharp cut-off); inactive = mostly below about 14%. The full list was thinned out, with actives kept by preference.
Hello, when you answer, please use one of the following outcomes: Yes (active), No (inactive)

Here are 4 molecules together with their reported answers.
COc1c(C(C)C)oc2cc3oc(=O)ccc3cc12 ... Yes
COc1ccccc1-n1cnc2cc(NS(=O)(=O)c3ccccc3)ccc21 ... Yes
Cc1ccc(OCC(=O)Nc2ccc3oc(=O)ccc3c2)cc1C ... No
C=CCn1c(SCc2ccc(C(=O)NCCO)cc2)nc2ccccc2c1=O ... No

# fetch the recorded call for Cc1ccc(N(Cc2ccc(C(=O)Nc3ccccc3C(=O)NCc3ccco3)cc2)S(C)(=O)=O)cc1C here No

Identify the outcome logged in this assay for the molecule shown: O=S(=O)(c1ccc(Br)c2ccccc12)N1CCOCC1 No

Record lookup: outcome of this test for C=CCN(C(=O)c1cc(C)cc(C)c1)C1(C(=O)Nc2ccccc2)CCN(C(C)C)CC1 ? No

Which outcome did this test record for the molecule CCc1ccc2[nH]c(=O)c(Cc3ccccc3)c(O)c2c1 ? No
